Measured values drawn from ChEMBL document CHEMBL6121065 for this set.

Tested on: SK-N-AS
assay.explanation: Antiproliferative activity against human SK-N-AS cells assessed as reduction in cell viability incubated for 72 hrs by cell-titer Glo assay
Format: functional, cell-based
measured.parameter: IC50

Short answer please: IC50, SK-N-AS, entry O=C(CNC(=O)c1cccc2ccccc12)Nc1cccc(Oc2ccncc2)c1
21.6 µM

Short answer please: IC50, SK-N-AS, entry O=C(CNC(=O)c1cccc2ccccc12)Nc1ccccc1Oc1ccncc1
> 50 µM

Short answer please: IC50, SK-N-AS, entry COc1cccc(Oc2ccccc2NC(=O)CNC(=O)c2cccc3ccccc23)c1
0.125 µM

Short answer please: IC50, SK-N-AS, entry O=C(CNC(=O)c1nccc2ccccc12)Nc1cccc(Oc2ccncc2)c1
34 µM

Short answer please: IC50, SK-N-AS, entry O=C(CNC(=O)c1nccc2ccccc12)Nc1ccccc1Oc1ccccc1
35 µM
